A collection of molecules and their measured aglycon
test system: β-Xylosidase derived from pectinase G; assay: Reactivity toward various isoflavone glycosides (HPLC); type: biochemical; set-up: unit not given here; settings: Reaction time 3 h; 55 °C, pH 4.0
Recorded endpoint: aglycon

Line notation	Measured result
O=c1c(-c2ccc(O)cc2)coc2cc(O[C@@H]3O[C@H](CO)[C@@H](O)[C@H](O)[C@H]3O)ccc12	24
COc1cc2c(=O)c(-c3ccc(O)cc3)coc2cc1O[C@@H]1O[C@H](COC(C)=O)[C@@H](O)[C@H](O)[C@H]1O	0
COc1cc2c(=O)c(-c3ccc(O)cc3)coc2cc1O[C@@H]1O[C@H](COC(=O)CC(=O)O)[C@@H](O)[C@H](O)[C@H]1O	0
